B1: Twister Ribozyme (parent)
chain: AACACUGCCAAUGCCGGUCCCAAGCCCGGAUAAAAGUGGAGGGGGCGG

# Variants of: B1
# method: self-cleavage, relative activity (ratio to wild type); higher = more cleavage; co-transcriptional
endpoint label: self-cleavage

{"mutation string": "U31A G45A", "endpoint label": "self-cleavage", "reading": 0.727}
{"mutation string": "C8U G13A", "endpoint label": "self-cleavage", "reading": 0.342}
{"mutation string": "C19A A32C", "endpoint label": "self-cleavage", "reading": 0.201}
{"mutation string": "U37A G39U", "endpoint label": "self-cleavage", "reading": 0.159}
{"mutation string": "C9G G38U", "endpoint label": "self-cleavage", "reading": 0.387}
{"mutation string": "G17A C46G", "endpoint label": "self-cleavage", "reading": 0.592}
{"mutation string": "A11G G39A", "endpoint label": "self-cleavage", "reading": 0.477}
{"mutation string": "A11G G28A", "endpoint label": "self-cleavage", "reading": 0.84}
{"mutation string": "A33U A40G", "endpoint label": "self-cleavage", "reading": 0.154}
{"mutation string": "C19A C26U", "endpoint label": "self-cleavage", "reading": 0.0877}
{"mutation string": "G17U A34U", "endpoint label": "self-cleavage", "reading": 0.159}
{"mutation string": "G36A G47A", "endpoint label": "self-cleavage", "reading": 0.557}
{"mutation string": "G38A G44A", "endpoint label": "self-cleavage", "reading": 0.897}
{"mutation string": "G7C G44C", "endpoint label": "self-cleavage", "reading": 0.0685}
{"mutation string": "A32G G36A", "endpoint label": "self-cleavage", "reading": 0.618}
{"mutation string": "U6A U12G", "endpoint label": "self-cleavage", "reading": 0.903}
{"mutation string": "U12A C20G", "endpoint label": "self-cleavage", "reading": 0.16}
{"mutation string": "G7C G43U", "endpoint label": "self-cleavage", "reading": 0.0777}
{"mutation string": "C14U G47C", "endpoint label": "self-cleavage", "reading": 0.616}
{"mutation string": "G29A G42A", "endpoint label": "self-cleavage", "reading": 0.284}
{"mutation string": "G7C U12A", "endpoint label": "self-cleavage", "reading": 0.0478}
{"mutation string": "C21U C26U", "endpoint label": "self-cleavage", "reading": 0.0769}
{"mutation string": "G7A C19U", "endpoint label": "self-cleavage", "reading": 0.122}
{"mutation string": "C15G G29A", "endpoint label": "self-cleavage", "reading": 0.104}
{"mutation string": "C8G G13C", "endpoint label": "self-cleavage", "reading": 0.0604}
{"mutation string": "A11G G38A", "endpoint label": "self-cleavage", "reading": 0.824}
{"mutation string": "G16U C20U", "endpoint label": "self-cleavage", "reading": 0.797}
{"mutation string": "G13U G16C", "endpoint label": "self-cleavage", "reading": 0.094}
{"mutation string": "A4G C9U", "endpoint label": "self-cleavage", "reading": 0.549}
{"mutation string": "A11C A33G", "endpoint label": "self-cleavage", "reading": 0.893}
{"mutation string": "A40C G44U", "endpoint label": "self-cleavage", "reading": 0.296}
{"mutation string": "G39U G41U", "endpoint label": "self-cleavage", "reading": 0.149}
{"mutation string": "U12G C20G", "endpoint label": "self-cleavage", "reading": 0.249}
{"mutation string": "C15U A23C", "endpoint label": "self-cleavage", "reading": 0.134}
{"mutation string": "A22C G48C", "endpoint label": "self-cleavage", "reading": 1.16}
{"mutation string": "A32G U37A", "endpoint label": "self-cleavage", "reading": 0.752}
{"mutation string": "A1C C9A", "endpoint label": "self-cleavage", "reading": 0.221}
{"mutation string": "C5U G48A", "endpoint label": "self-cleavage", "reading": 0.639}
{"mutation string": "C3A C5U", "endpoint label": "self-cleavage", "reading": 0.159}
{"mutation string": "A23U A34U", "endpoint label": "self-cleavage", "reading": 0.121}
{"mutation string": "A4G G42C", "endpoint label": "self-cleavage", "reading": 0.186}
{"mutation string": "C3G C14U", "endpoint label": "self-cleavage", "reading": 0.47}
{"mutation string": "G24U A30G", "endpoint label": "self-cleavage", "reading": 0.111}
{"mutation string": "G7C G17C", "endpoint label": "self-cleavage", "reading": 0.0528}
{"mutation string": "C14G A30C", "endpoint label": "self-cleavage", "reading": 0.16}
{"mutation string": "G38U G44A", "endpoint label": "self-cleavage", "reading": 0.811}
{"mutation string": "A40G G47U", "endpoint label": "self-cleavage", "reading": 0.143}
{"mutation string": "U18A G47C", "endpoint label": "self-cleavage", "reading": 0.164}
{"mutation string": "C14A C26U", "endpoint label": "self-cleavage", "reading": 0.247}
{"mutation string": "A22C G36A", "endpoint label": "self-cleavage", "reading": 0.547}
{"mutation string": "A2G", "endpoint label": "self-cleavage", "reading": 0.411}
{"mutation string": "G17C G43U", "endpoint label": "self-cleavage", "reading": 0.0878}
{"mutation string": "A11G C14U", "endpoint label": "self-cleavage", "reading": 0.943}
{"mutation string": "A10U A23U", "endpoint label": "self-cleavage", "reading": 0.632}
{"mutation string": "A11U C26U", "endpoint label": "self-cleavage", "reading": 0.69}
{"mutation string": "G17C A30G", "endpoint label": "self-cleavage", "reading": 0.0984}
{"mutation string": "G7C G47U", "endpoint label": "self-cleavage", "reading": 0.0642}
{"mutation string": "G41A G45A", "endpoint label": "self-cleavage", "reading": 0.588}
{"mutation string": "A4U G17C", "endpoint label": "self-cleavage", "reading": 0.0361}
{"mutation string": "A23G A40G", "endpoint label": "self-cleavage", "reading": 0.123}
{"mutation string": "G16A C21A", "endpoint label": "self-cleavage", "reading": 0.104}
{"mutation string": "C26U A32G", "endpoint label": "self-cleavage", "reading": 0.411}
{"mutation string": "A23U A33C", "endpoint label": "self-cleavage", "reading": 0.186}
{"mutation string": "A40G G44C", "endpoint label": "self-cleavage", "reading": 0.195}
{"mutation string": "G7A A23G", "endpoint label": "self-cleavage", "reading": 0.0819}
{"mutation string": "C9G C20A", "endpoint label": "self-cleavage", "reading": 0.0864}
{"mutation string": "C5A G39C", "endpoint label": "self-cleavage", "reading": 0.149}
{"mutation string": "G16A A30C", "endpoint label": "self-cleavage", "reading": 0.91}
{"mutation string": "U18C C20G", "endpoint label": "self-cleavage", "reading": 0.102}
{"mutation string": "A1G G28U", "endpoint label": "self-cleavage", "reading": 0.428}
{"mutation string": "A10U C14A", "endpoint label": "self-cleavage", "reading": 0.824}
{"mutation string": "C21U C25U", "endpoint label": "self-cleavage", "reading": 0.0856}
{"mutation string": "G7A G24C", "endpoint label": "self-cleavage", "reading": 0.0973}
{"mutation string": "A34G G42U", "endpoint label": "self-cleavage", "reading": 0.131}
{"mutation string": "U12G G45U", "endpoint label": "self-cleavage", "reading": 0.419}
{"mutation string": "G24A C27A", "endpoint label": "self-cleavage", "reading": 0.0771}
{"mutation string": "A10U C25A", "endpoint label": "self-cleavage", "reading": 0.0757}
{"mutation string": "A40G G48A", "endpoint label": "self-cleavage", "reading": 0.193}
{"mutation string": "U12C A30G", "endpoint label": "self-cleavage", "reading": 0.712}
{"mutation string": "A2C G45A", "endpoint label": "self-cleavage", "reading": 0.0666}
{"mutation string": "C20G G28C", "endpoint label": "self-cleavage", "reading": 0.171}
{"mutation string": "C21U G39A", "endpoint label": "self-cleavage", "reading": 0.0714}
{"mutation string": "C9G A33U", "endpoint label": "self-cleavage", "reading": 0.689}
{"mutation string": "G28A A32G", "endpoint label": "self-cleavage", "reading": 0.835}
{"mutation string": "G39U G47C", "endpoint label": "self-cleavage", "reading": 0.16}
{"mutation string": "A10G A34G", "endpoint label": "self-cleavage", "reading": 0.888}
{"mutation string": "U18C G29A", "endpoint label": "self-cleavage", "reading": 0.275}
{"mutation string": "G36C G43A", "endpoint label": "self-cleavage", "reading": 0.134}
{"mutation string": "G13U A22G", "endpoint label": "self-cleavage", "reading": 0.098}
{"mutation string": "C9G G45A", "endpoint label": "self-cleavage", "reading": 0.444}
{"mutation string": "G28C A32U", "endpoint label": "self-cleavage", "reading": 0.813}
